tgt: HLA-A*03:01
test protocol: IEDB peptide-MHC binding, purified MHC/competitive/fluorescence; filed as Kd, often an IC50 or EC50 that approximates it; bounds were set here for any values at or beyond the usual limits of such assays
condition description: source organism: Cryptosporidium parvum Iowa II
value kind: Kd (nM)
Return type: number; implicit unit nM.

// returns reported Kd for input KISGSFSPH
36.9

* * *

tgt: HLA-B*15:01
test protocol: IEDB peptide-MHC binding, purified MHC/direct/fluorescence; filed as Kd, often an IC50 or EC50 that approximates it; bounds were set here for any values at or beyond the usual limits of such assays
condition description: source organism: Escherichia coli
value kind: Kd (nM)
Return type: number; implicit unit nM.

Recall the recorded Kd for WSILRQRCW with HLA-B*15:01 and state it.
93.4

* * *

tgt: HLA-B*27:03
test protocol: IEDB peptide-MHC binding, purified MHC/direct/fluorescence; filed as Kd, often an IC50 or EC50 that approximates it; bounds were set here for any values at or beyond the usual limits of such assays
condition description: source organism: Crocodilepox virus
value kind: Kd

// returns reported Kd for input VVARLGVPY
≥ 20 µM

* * *

tgt: HLA-C*06:02
test protocol: IEDB peptide-MHC binding, purified MHC/direct/fluorescence; filed as Kd, often an IC50 or EC50 that approximates it; bounds were set here for any values at or beyond the usual limits of such assays
condition description: source organism: Influenza A virus (A/nt/60/1968(H3N2))
pKd: −log10 of the molar value.
value kind: pKd

Recall the recorded pKd for HRTLLMNEL with HLA-C*06:02 and state it.
≤ 4.70

* * *

tgt: HLA-A*02:03
test protocol: IEDB peptide-MHC binding, purified MHC/direct/fluorescence; filed as Kd, often an IC50 or EC50 that approximates it; bounds were set here for any values at or beyond the usual limits of such assays
condition description: source organism: Mycobacterium tuberculosis str. Haarlem
value kind: pKd
Quick note: pKd values are minus log10 of concentrations in mol/L.

Recall the recorded pKd for ALFPIIWAL with HLA-A*02:03 and state it.
8.52

* * *

tgt: HLA-A*24:03
test protocol: IEDB peptide-MHC binding, purified MHC/direct/fluorescence; filed as Kd, often an IC50 or EC50 that approximates it; bounds were set here for any values at or beyond the usual limits of such assays
condition description: source organism: Listeria monocytogenes EGD-e
value kind: Kd

// returns reported Kd for input RYPRSVLTF
≤ 1 nM

* * *

tgt: HLA-B*18:01
test protocol: IEDB peptide-MHC binding, purified MHC/direct/fluorescence; filed as Kd, often an IC50 or EC50 that approximates it; bounds were set here for any values at or beyond the usual limits of such assays
condition description: source organism: Influenza A virus (A/goose/Guangxi/1097/2004(H5N1))
pKd: −log10 of the molar value.
value kind: pKd

// returns reported pKd for input KYTSGRQEK
≤ 4.70

* * *

tgt: HLA-A*68:23
test protocol: IEDB peptide-MHC binding, purified MHC/competitive/fluorescence; filed as Kd, often an IC50 or EC50 that approximates it; bounds were set here for any values at or beyond the usual limits of such assays
condition description: source organism: Salmonella enterica subsp. arizonae serovar 62:z4,z23:-
value kind: Kd (nM)
Return type: number; implicit unit nM.

Recall the recorded Kd for YTIYGAWMF with HLA-A*68:23 and state it.
0.6

* * *

tgt: HLA-B*44:02
test protocol: IEDB peptide-MHC binding, purified MHC/competitive/radioactivity; filed as Kd, often an IC50 or EC50 that approximates it; bounds were set here for any values at or beyond the usual limits of such assays
condition description: source organism: Mammarenavirus guanaritoense
value kind: pKd
Quick note: pKd values are minus log10 of concentrations in mol/L.

// returns reported pKd for input AEFTFQLNL
7.22
